# System tested: Recombinant human COX-2 (Homo sapiens, UniProt P35354)
# Sequence (P35354 18-604): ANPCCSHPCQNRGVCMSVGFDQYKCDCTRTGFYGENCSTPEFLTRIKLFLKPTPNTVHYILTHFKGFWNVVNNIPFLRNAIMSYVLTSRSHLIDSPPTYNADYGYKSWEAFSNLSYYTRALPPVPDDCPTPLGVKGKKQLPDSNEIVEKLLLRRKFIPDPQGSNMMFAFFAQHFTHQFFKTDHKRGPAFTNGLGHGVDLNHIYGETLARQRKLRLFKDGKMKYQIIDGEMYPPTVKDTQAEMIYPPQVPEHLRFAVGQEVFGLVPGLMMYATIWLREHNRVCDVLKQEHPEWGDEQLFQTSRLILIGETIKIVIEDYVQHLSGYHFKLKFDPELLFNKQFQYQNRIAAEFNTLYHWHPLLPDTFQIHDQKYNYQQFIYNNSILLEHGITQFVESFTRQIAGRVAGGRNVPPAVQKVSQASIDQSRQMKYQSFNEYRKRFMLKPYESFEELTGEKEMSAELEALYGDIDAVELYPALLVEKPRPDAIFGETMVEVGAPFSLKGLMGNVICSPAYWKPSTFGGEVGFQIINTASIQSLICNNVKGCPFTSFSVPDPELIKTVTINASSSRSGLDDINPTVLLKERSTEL
# Assay: Recombinant human COX-2 enzyme assay (PGE2 by EIA)
# Test settings: preincubation 5 min at 22° C., 2 μM arachidonic acid
# Procedure: Recombinant human enzymes were reconstituted in buffer (100 mM Tris, pH 7.8 at 37° C.) containing 0.5 mM phenol (964 μl total volume). […] The reaction was incubated for 35 s (maximum level of COX-2 accumulation as determined from time course studies), and terminated by addition of 50-60 μl of SnCl2 (1 mg/ml) in 0.1 N HCl. PGE2 production in the presence or absence of the drug was determined by Enzyme Immunoassay (EIA) analysis as described. […]
Value kind: IC50 (µM)
Numbers only, in µM.

Use these answered entries as a reference point.
Record smiles: COc1ccc2c(c1)c(CC(=O)NC[Si](C)(C)C)c(C)n2C(=O)c1ccc(Cl)cc1
Assay result: 0.39
--
Record smiles: COc1ccc2c(c1)c(CC(=O)NC[Si](C)(C)c1ccccc1)c(C)n2C(=O)c1ccc(Cl)cc1
Assay result: 0.31
--
Record smiles: CCO[Si](CCCNC(=O)Cc1c(C)n(C(=O)c2ccc(Cl)cc2)c2ccc(OC)cc12)(OCC)OCC
Assay result: 0.57

Next:
Problem: Fill in the blank: the reported IC50 of COc1ccc2c(c1)c(CC(=O)NCCC[Si](C)(C)C)c(C)n2C(=O)c1ccc(Cl)cc1 is ____.
Result: 0.21

* * *

Provide the recorded melting point for the entries that follow.

Molecule: COc1ccc2c(c1)c(CC(=O)NC[Si](C)(C)C)c(C)n2C(=O)c1ccc(Cl)cc1 [Example 2]
Assay result: 163 to 165 °C
--
Molecule: CCO[Si](CCCNC(=O)Cc1c(C)n(C(=O)c2ccc(Cl)cc2)c2ccc(OC)cc12)(OCC)OCC [Example 4]
Assay result: 71 to 73 °C (dec.)
--
Molecule: COc1ccc2c(c1)c(CC(=O)NC[Si](C)(C)c1ccccc1)c(C)n2C(=O)c1ccc(Cl)cc1 [Example 3]
Assay result: 121 to 124 °C

Would you kindly look at the next entry?
Problem: Can you share its melting point? I mean this molecule: COc1ccc2c(c1)c(CC(=O)NCCC[Si](C)(C)C)c(C)n2C(=O)c1ccc(Cl)cc1 [Example 1]
Result: 97 to 101 °C
